Molecular target: T1, Human IL-11 (human, UniProt P20809 22-199)
T1 construct: Recombinant human IL-11 (GenScript Cat. No. Z03108-1) or IL-11 secreted by human cells; the mature form is said to have 178 residues; also called recombinant human IL-11; endogenously produced IL-11
T1 sequence: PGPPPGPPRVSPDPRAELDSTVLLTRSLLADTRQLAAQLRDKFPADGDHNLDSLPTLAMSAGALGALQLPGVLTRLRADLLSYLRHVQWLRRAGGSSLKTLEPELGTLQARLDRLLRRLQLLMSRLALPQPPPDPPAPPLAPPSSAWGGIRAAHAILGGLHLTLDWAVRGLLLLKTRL
Assay: ELISA
Description: The soluble scFv were produced by recombinant expression in E. coli, and analysed for their ability to bind to human IL-11 and murine IL-11 by ELISA. Briefly, the respective antigen was coated to wells of an ELISA plate, the cell culture supernatant containing the respective scFv was added at a 1:2 dilution, and binding was detected.
Recorded hIL11 - average signal by entry
// return just the number, without any unit appended

Some entries whose results are on file:
{"binder": "YU100-B06 (antibody) QVQLVESGGGVVQPGRSLRLSCAASGFTFSSYGMHWVRQAPGKGLEWVAVISYDGSNKYYADSVKSRFTISRDNSKNTLYLQMNSLRAEDTAVYYCAKIGATDPLDYWGQGTLVTVSSGSASAPKLEEGEFSEARVQSALTQPASVSGSPGQSITISCTGTSSDVGGYNYVSWYQQHPGKAPKLMIYDVSKRPSGVPDRFSGSKSGNTASLTISGLQAEDEADYYCNSYAGSYTWVFGGGTKLTVL", "hIL11 - average signal": 0.209}
{"binder": "YU100-E10 (antibody) QVQLVQSGGGVVQPGRSLRLSCAASGFTFSSYGMHWVRQAPGKGLEWVAVISYDGSNKYYADSVKGRFTISRDNSKNTLYLQMNSLRAEDTAVYYCAKIGATDPLDYWGQGTLVTVSSGSASAPKLEEGEFSEARVQSALTQPRSVSGSPGQSVTISCTGTSSDVGGYNYVSWYQQHPGKAPKLMIFDVSQRPSGVPDRFSASKSGNTASLTISGLQAEDEADYYCCSYAGSYTWVFGGGTKLTVL", "hIL11 - average signal": 0.338}

Q. Tell me the measured hIL11 - average signal of YU100-B01 (antibody) QVQLVQSGGGVVQPGRSLRLSCAASGFTFSSYGMHWVRQAPGKGLEWVAVISYDGSNKYYADSVKGRFTISRDNSKNTLYLQMNSLRAEDTAVYYCAKIGATDPLDYWGQGTLVTVSSGSASAPKLEEGEFSEARVQSALTQPRSVSGSPGQSVTISCTGTNTDVGAYNYVSWYQQYPGKAPKLIIYDVSKRPSGVPDRFSGSKSGNTASLTISGLQAEDEADYYCCSYAGSYSWVFGGGTKLTVL , please.
A. 0.187
